target: D(1A) dopamine receptor (Homo sapiens); test: Antagonist of Human D 1 Dopamine Receptor: qHTS; conditions: HEK293 TREx D1 cells, calcium flux, dopamine EC80; at 10 µM
About 11,000 (3.1%) of roughly 360,000 compounds were called active. No stated cut-off is given here; in the data, active means activity change below about -30%; inactive means the rest. Many of the other results were omitted from the sample, so actives are more common in it than they were.
Entry note: the call must match one of active, inactive

Data request: Outcome? CCOc1ccc(N(CC(=O)NCCc2ccc(F)cc2)S(=O)(=O)c2ccccc2)cc1
Data returned: active

Data request: Outcome? COC(=O)c1ccccc1NC(=O)Cn1c(=O)cc(C)c2c(C)nn(-c3cccc(Cl)c3C)c21
Data returned: inactive

Data request: Outcome? O=C(NCc1cccnc1)C(=O)NCC(c1cccnc1)N1CCN(c2ccccc2)CC1 (stereo not given)
Data returned: inactive

Data request: Outcome? COc1cc(OC)c(NC(=O)c2c3c(nn2C)-c2ccccc2SC3)cc1Cl
Data returned: inactive

Data request: Outcome? COc1cc(NC(=O)c2ccc(-c3csc(C)n3)cc2)c(OC)cc1Cl
Data returned: inactive

Data request: Outcome? CCc1ccc(NC(=O)Cn2c(=O)n(CCC(=O)NCc3ccc4c(c3)OCO4)c(=O)c3ccccc32)cc1
Data returned: inactive

Data request: Outcome? Cc1nc(NNC(=O)c2ccccc2)cc(-c2ccccc2)n1
Data returned: inactive

Data request: Outcome? Nc1cccc(-c2cc(-c3ccccc3)nc(-c3cccc(N)c3)n2)c1
Data returned: active

Data request: Outcome? COc1ccccc1C(=O)Nc1ccnn1C1CCN(Cc2cnn(C)c2)CC1
Data returned: inactive

Data request: Outcome? Cc1cc(-c2ccccc2)n2nc(-c3ccccc3)cc2n1
Data returned: inactive
